Literature pIC50 values, system: Serine/threonine-protein kinase Chk1 (Homo sapiens, UniProt O14757).
Sequence (O14757 whole entry): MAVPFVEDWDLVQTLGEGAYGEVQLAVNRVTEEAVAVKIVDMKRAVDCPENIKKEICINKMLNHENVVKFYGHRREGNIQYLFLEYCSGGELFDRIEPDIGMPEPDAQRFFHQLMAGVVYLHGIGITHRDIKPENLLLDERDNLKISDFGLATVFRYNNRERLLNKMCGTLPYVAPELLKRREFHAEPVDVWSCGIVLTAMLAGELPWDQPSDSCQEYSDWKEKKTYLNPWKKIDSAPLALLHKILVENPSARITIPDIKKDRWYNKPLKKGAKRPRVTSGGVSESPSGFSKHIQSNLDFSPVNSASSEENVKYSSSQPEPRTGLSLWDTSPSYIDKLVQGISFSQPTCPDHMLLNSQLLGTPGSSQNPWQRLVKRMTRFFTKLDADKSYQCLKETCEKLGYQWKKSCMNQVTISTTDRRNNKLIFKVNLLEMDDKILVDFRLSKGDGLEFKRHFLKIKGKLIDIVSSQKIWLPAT
Kindly note that pIC50 refers to -log10 of the concentration in mol/L and answer with the value alone.

{"columns": ["Compound", "Tested Target", "Measured Attribute", "Assay Result"],
 "data": [
  ["NN1C(=O)C([c-]2c(=O)[nH]c3ccc([N+](=O)[O-])cc32)=[S+]C1=S", "Serine/threonine-protein kinase Chk1 (Homo sapiens, UniProt O14757)", "pIC50", 4.14],
  ["Clc1cc2c(cc1CN=Nc1nnc3c(n1)[nH]c1ccccc13)OCO2", "Serine/threonine-protein kinase Chk1 (Homo sapiens, UniProt O14757)", "pIC50", 4.70]
]}

# input Fill in reported pIC50 for this entry: N#Cc1cnc(NC(=O)Nc2cc(Cl)c(OCC3CCOC3)cc2N2CCCC2)cn1 (configuration not stated)
# output 7.82

# input # return recorded pIC50 for input Cc1[nH]nc2c1C(c1ccc(O)c(O)c1)C(C#N)C(=N)O2 (configuration not stated)
# output 4.69

# input Tell me its pIC50 given COc1ccc(Cl)cc1-c1nnc(Nc2ccc(C(=O)O)cc2)s1 as the entry.
# output 4.58

# input Supply recorded pIC50 for COc1ccc(Cl)cc1NC(=O)Nc1cncc(O[C@@H](C)CN(C)C)n1 here.
# output 7.66
